test system: ZR-75-1 Tam2; assay: drug sensitivity score (DSS) (DSS (dimensionless)); higher = more sensitive; extreme values may be limits of the assay; settings: 4-OH-tamoxifen in medium 1 µM; 72 h
Where a name gives a salt, the structure may show the parent alone.
quantityName: drug sensitivity score
One number for each entry.

Example compounds with recorded drug sensitivity score:
>>> valuereported("Cc1cnc(NC(=O)Nc2cc(Br)c(C)cc2OC[C@@H]2CNCCO2)cn1")
0
>>> valuereported("O=C(/C=C/c1cccnc1)NCCCCC1CCN(C(=O)c2ccccc2)CC1 [Daporinad (FK-866 HCl)]")
0
>>> valuereported("Cn1nnc2c(C(N)=O)ncn2c1=O [Temozolomide]")
0
>>> valuereported("C[C@]12CC[C@@H]3c4ccc(OC(=O)N(CCCl)CCCl)cc4CC[C@H]3[C@@H]1CC[C@@H]2O")
0
>>> valuereported("CC(C)(C)c1cc(NC(=O)Nc2ccc(-c3cn4c(n3)sc3cc(OCCN5CCOCC5)ccc34)cc2)no1")
0

Give drug sensitivity score for all compounds that follow.
1. O=C(/C=C/c1cccc(S(=O)(=O)Nc2ccccc2)c1)NO
2. CO[C@@]12[C@H](COC(N)=O)C3=C(C(=O)C(C)=C(N)C3=O)N1C[C@@H]1N[C@@H]12
3. Clc1ccc(C(c2ccccc2Cl)C(Cl)Cl)cc1 (stereo not given)
4. Cc1ccc(C(=O)Nc2ccc(CN3CCN(C)CC3)c(C(F)(F)F)c2)cc1C#Cc1cnc2cccnn12
5. Cn1c(=O)n(-c2ccc(C(C)(C)C#N)cc2)c2c3cc(-c4cnc5ccccc5c4)ccc3ncc21
6. COc1cc(CCc2cc(NC(=O)c3ccc(N4CC(C)NC(C)C4)cc3)n[nH]2)cc(OC)c1 (stereo not given)
7. Oc1ncc(N(CCCl)CCCl)c(O)n1
8. CO[C@H]1C[C@@H]2CC[C@@H](C)[C@@](O)(O2)C(=O)C(=O)N2CCCC[C@H]2C(=O)O[C@H]([C@H](C)C[C@@H]2CC[C@@H](OP(C)(C)=O)[C@H](OC)C2)CC(=O)[C@H](C)/C=C(\C)[C@@H](O)[C@@H](OC)C(=O)[C@H](C)C[C@H](C)/C=C/C=C/C=C/1C

# output
1: 6.02; 2: 1.28; 3: 0; 4: 0.0834; 5: 12.6; 6: 0; 7: 0; 8: 10.1

Give drug sensitivity score for all compounds that follow.
1. CC(O)(CS(=O)(=O)c1ccc(F)cc1)C(=O)Nc1ccc(C#N)c(C(F)(F)F)c1 (stereo not given) [Bicalutamide]
2. CCOc1cc2ncc(C#N)c(Nc3ccc(OCc4ccccn4)c(Cl)c3)c2cc1NC(=O)/C=C/CN(C)C

# output
0
0

Values from the supplement of paper PMC4932681
